pIC50: −log10 of the molar value.
Consider the following pIC50 data for Vascular endothelial growth factor receptor 2 (Homo sapiens, UniProt P35968), collected from several reports.

{"columns": ["compound", "pIC50"],
 "data": [
  ["CN1CCC(OCc2cc(NC(=O)Nc3ccc(Oc4ccnc(-c5nnco5)c4)cc3)cc(C(F)(F)F)c2)CC1", "≥ 5.00"],
  ["O=C1Nc2cc(Nc3nc4c(-c5nccs5)nccn4n3)ccc2OC1(F)F", "4.30 to 5.52"]
]}

Entry Cc1cc(-c2cnc3cc(-c4ccc(C5COC6(CCNC6)CN5)cc4)ccn23)c2cc(F)cc(F)c2n1 (stereo not shown) , system Vascular endothelial growth factor receptor 2 (Homo sapiens, UniProt P35968): what pIC50 was measured? < 4.00

Entry `Cn1cc(-c2cc(-c3ccc(N4C[C@@H]5[C@@H](CNS(=O)(=O)c6c(F)cccc6Cl)[C@@H]5C4)nc3)c3c(C#N)cnn3c2)cn1` , system Vascular endothelial growth factor receptor 2 (Homo sapiens, UniProt P35968): what pIC50 was measured? 7.30 to 8.00

---

Consider the following IC50 data for Vascular endothelial growth factor receptor 2 (Homo sapiens), collected from several reports.

{"columns": ["compoundStructure", "assayedSystem", "result"],
 "data": [
  ["CCCS(=O)(=O)Nc1ccc(F)c(C(=O)c2c[nH]c3ncc(-c4ccc(OCCN5CCOCC5)nc4)cc23)c1F", "Vascular endothelial growth factor receptor 2 (Homo sapiens)", "≤ 10 µM"]
]}

Entry `COc1cc2ncnc(Oc3ccc(NC(=O)NC4CC4)c(Cl)c3)c2c2c1OCCO2` , system Vascular endothelial growth factor receptor 2 (Homo sapiens): what IC50 was measured? < 0.05 µM

Entry `Cn1cc(-c2cnc3[nH]cc(C(=O)c4cc(NS(=O)(=O)c5cccc(Cl)c5)ccc4F)c3c2)cn1` , system Vascular endothelial growth factor receptor 2 (Homo sapiens): what IC50 was measured? ≤ 10 µM

Entry `CCCS(=O)(=O)Nc1ccc(F)c(Nc2ncnc3ccc(-c4ccncc4)cc23)c1F` , system Vascular endothelial growth factor receptor 2 (Homo sapiens): what IC50 was measured? > 3 µM

---

Consider the following IC50 data for UniProt:P35968, collected from several reports.

The cases that follow already have their IC50 on record.
{"columns": ["molecule", "assayedSystem", "IC50"],
 "data": [
  ["Cn1cc(C(=O)Nc2ccc(Oc3ccnc4cc(OCCCN5CCCCC5)c5c(c34)OCCO5)cc2Cl)c(=O)n(-c2ccc(F)cc2)c1=O", "UniProt:P35968", "50 to 500 nM"],
  ["O=C(Nc1cc(N2CCCC2=O)cc(C(F)(F)F)c1)Nc1ccc(Oc2ccnc(NC(=O)C3CC3)c2)c(F)c1", "UniProt:P35968", "15.5 nM"],
  ["COc1cc2nccc(Oc3ccc(NC(=O)c4cn(C)c(C)c(C5=CCCC5)c4=O)cc3F)c2nc1OC", "UniProt:P35968", "≤ 100 nM"],
  ["O=C1C(c2ccncc2)Cc2cnc(Nc3ccccc3)nc2N1c1ccccc1 (centres unmarked)", "UniProt:P35968", "< 10000 nM"],
  ["COCCOc1cc2nccc(Oc3ccc(NC(=O)c4c(C)nc(C)c(C5=CCCC5)c4O)cc3F)c2nc1OC", "UniProt:P35968", "≤ 100 nM"],
  ["O=C(Nc1ccc(F)c(C(=O)c2ccc3ncc(N4CCOCC4)nc3c2)c1)c1ccc(Cl)c(C(F)(F)F)c1", "UniProt:P35968", "< 100 nM"]
]}

Entry `COCCOc1ccc(F)c(Cc2c[nH]c3ncc(Cl)cc23)c1Cl` , system UniProt:P35968: what IC50 was measured? ≤ 10000 nM

---

Consider the following IC50 data for Vascular endothelial growth factor receptor 2 (Homo sapiens), collected from several reports.

The cases that follow already have their IC50 on record.
{"columns": ["compoundStructure", "assayedSystem", "result"],
 "data": [
  ["CCOc1ncccc1CNc1ccc(Cc2c[nH]c3ncncc23)c(F)n1", "Vascular endothelial growth factor receptor 2 (Homo sapiens)", "≤ 10000 nM"],
  ["CN1CCN(Cc2cc(NC(=O)Nc3cccc(Oc4cc(-c5nnco5)ncn4)c3)cc(C(F)(F)F)c2)CC1", "Vascular endothelial growth factor receptor 2 (Homo sapiens)", "≤ 10000 nM"],
  ["COc1cc2nccc(Oc3ccc(NC(=S)N4CCN(C)CC4)c(Cl)c3)c2cc1C(N)=O", "Vascular endothelial growth factor receptor 2 (Homo sapiens)", "200 to 1000 nM"],
  ["CCn1cc(C(=O)Nc2ccc(Oc3ccnc4cc(OCCOC)c5c(c34)OCCO5)cc2F)c(=O)n(-c2ccc(F)cc2)c1=O", "Vascular endothelial growth factor receptor 2 (Homo sapiens)", "500 to 5000 nM"],
  ["C[C@H](Nc1cncc(-c2ccc(S(C)(=O)=O)cc2)n1)c1cccc(NC(=O)c2cccc(C(F)(F)F)c2)c1", "Vascular endothelial growth factor receptor 2 (Homo sapiens)", "< 100 nM"],
  ["COc1ncc(CNc2ccc(Cc3c[nH]c4ncnc(OC)c34)c(F)n2)cc1F", "Vascular endothelial growth factor receptor 2 (Homo sapiens)", "≤ 10000 nM"],
  ["COc1cc2nccc(Oc3ccc(NC(=O)c4cn(C(C)C)c(C)c(-c5ccc(F)c(Cl)c5)c4=O)cc3F)c2nc1OC", "Vascular endothelial growth factor receptor 2 (Homo sapiens)", "< 100 nM"],
  ["Clc1ccc(Cc2c[nH]c3ncc(Oc4ccccc4)cc23)c(Cl)c1", "Vascular endothelial growth factor receptor 2 (Homo sapiens)", "≤ 10000 nM"]
]}

Could you now look at the following compound, please?
Which IC50 reading was recorded for the compound `Cn1ccc(-c2cc(-c3ccc(N4C[C@@H]5C[C@@](C)(NC(=O)c6c(F)cccc6Cl)C[C@@H]5C4)nc3)c3c(C#N)cnn3c2)n1` ? 10 to 50 nM

---

Consider the following IC50 data for Vascular endothelial growth factor receptor 2 (Homo sapiens, UniProt P35968), collected from several reports.

The cases that follow already have their IC50 on record.
{"columns": ["compoundStructure", "assayedSystem", "result"],
 "data": [
  ["Cn1cc(-c2ccnc3cc(-c4ccc(N5CCOCC5)nc4)oc23)cn1", "Vascular endothelial growth factor receptor 2 (Homo sapiens, UniProt P35968)", "0.3 to 3 µM"],
  ["Cn1cc(-c2cnc3[nH]cc(C(=O)c4cccc(NS(=O)(=O)c5ccc(F)cc5)c4)c3c2)cn1", "Vascular endothelial growth factor receptor 2 (Homo sapiens, UniProt P35968)", "≤ 10 µM"],
  ["Cn1cc(-c2cc(-c3ccc(N4C[C@@H]5[C@H](CNC(=O)c6ncccc6Cl)[C@@H]5C4)nc3)c3c(C#N)cnn3c2)cn1", "Vascular endothelial growth factor receptor 2 (Homo sapiens, UniProt P35968)", "≤ 0.01 µM"]
]}

Entry `Cc1cc(C)cc(Nc2nc3c(-c4ccc(N5CCOCC5)cc4)nccn3n2)c1` , system Vascular endothelial growth factor receptor 2 (Homo sapiens, UniProt P35968): what IC50 was measured? 3 to 50 µM

---

Consider the following IC50 data for Vascular endothelial growth factor receptor 2 (Homo sapiens, UniProt P35968), collected from several reports.

The cases that follow already have their IC50 on record.
{"columns": ["compoundStructure", "IC50"],
 "data": [
  ["O=S(=O)(CCCF)Nc1ccc(F)c(Nc2ncnc3ccc(-c4cccnc4F)cc23)c1F", "> 3000 nM"],
  ["O=C(c1cccc(O)c1)c1c[nH]c2ncc(Br)cc12", "≤ 10000 nM"],
  ["CCCS(=O)(=O)Nc1ccc(F)c(C(=O)c2c[nH]c3ncc(-c4cncc(S(C)(=O)=O)c4)cc23)c1F", "≤ 10000 nM"],
  ["CCOc1ccn(-c2ccc(F)cc2)c(=O)c1C(=O)Nc1ccc(Oc2ccnc3cc(OC4COC4)c4c(c23)OCCO4)c(F)c1", "50 to 500 nM"],
  ["O=C(Nc1ccc(Oc2ncnc3cc(OCCN4CCOCC4)c4c(c23)OCCO4)cc1)Nc1ccc(Cl)c(C(F)(F)F)c1", "500 to 5000 nM"],
  ["CN1CCN(c2ccc(Nc3nc4c(-c5cnc6ccccc6c5)nccn4n3)cc2)CC1", "300 to 3000 nM"],
  ["Cc1c(OC[C@@H](C)O)cn2ncnc(Oc3ccc(NC(=O)NC4CC4)c(Cl)c3)c12", "< 50 nM"]
]}

Could you now look at the following compound, please?
Which IC50 reading was recorded for the compound `COc1cc2nccc(Oc3ccc(NC(=S)N4CC[C@@H](O)C4)c(Cl)c3F)c2cc1C(N)=O` ? 50 to 200 nM

---

pIC50: −log10 of the molar value.
Consider the following pIC50 data for Vascular endothelial growth factor receptor 2 (Homo sapiens), collected from several reports.

The cases that follow already have their pIC50 on record.
{"columns": ["molecule", "assayedSystem", "result"],
 "data": [
  ["COCCOc1cc2ncnc(Oc3ccc(NC(=O)Nc4ccc(Cl)c(C(F)(F)F)c4)cc3F)c2c2c1OCCO2", "Vascular endothelial growth factor receptor 2 (Homo sapiens)", "> 7.30"],
  ["Cc1cc(N)ccc1C1CN=C2c3ccccc3NC(=O)N2C1 (centres unmarked)", "Vascular endothelial growth factor receptor 2 (Homo sapiens)", "< 5.00"],
  ["COc1cc(-c2cc3nccc(-c4cccc5[nH]ccc45)c3o2)cc(OC)c1OC", "Vascular endothelial growth factor receptor 2 (Homo sapiens)", "4.30 to 5.52"],
  ["COCCOc1cc2ncnc(Nc3ccc(NC(=O)Nc4ccc(Cl)c(C(F)(F)F)c4)c(Cl)c3)c2c2c1OCCO2", "Vascular endothelial growth factor receptor 2 (Homo sapiens)", "> 7.30"],
  ["C=CC(=O)Nc1cc2c(Nc3ccc(Br)cc3F)ncnc2cc1OCCNC(=O)CCN(C)C", "Vascular endothelial growth factor receptor 2 (Homo sapiens)", 6.45]
]}

Entry `O=C1Nc2ncccc2C1=CNc1ccc2cn[nH]c2c1` , system Vascular endothelial growth factor receptor 2 (Homo sapiens): what pIC50 was measured? 6.00 to 7.00

Entry `COc1cc(Cc2c[nH]c3ncccc23)cc(OC)c1` , system Vascular endothelial growth factor receptor 2 (Homo sapiens): what pIC50 was measured? ≥ 5.00

Entry `C[C@H](Nc1cncc(-c2cccc(S(C)(=O)=O)c2)n1)c1cccc(NC(=O)c2cccc(C(F)(F)F)c2)c1` , system Vascular endothelial growth factor receptor 2 (Homo sapiens): what pIC50 was measured? > 7.00
